Tested on: Pseudomonas aeruginosa
PROTOCOL NOTES: Compound was evaluated for antibacterial activity against Pseudomonas aeruginosa
Type: functional
// values below are reported MIC
Field note: include the unit after the figure.

Answered examples (3):
Pseudomonas aeruginosa MIC of CC(C)C[C@H](NC(=O)[C@H](CCCCN)NC(=O)[C@H](C)NC(=O)[C@H](CC(C)C)NC(=O)[C@H](CCCCN)NC(=O)[C@H](CCCCN)NC(=O)[C@H](C)NC(=O)[C@H](CC(C)C)NC(=O)[C@H](CCCCN)NC(=O)[C@H](C)NC(=O)[C@H](CC(C)C)NC(=O)[C@H](CCCCN)NC(=O)[C@H](CCCCN)NC(=O)[C@H](C)NC(=O)[C@H](CC(C)C)NC(=O)[C@H](CCCCN)NC(=O)[C@H](C)NC(=O)[C@H](CC(C)C)NC(=O)[C@@H](N)CCCCN)C(=O)N[C@@H](C)C(=O)N[C@@H](CCCCN)C(=O)O is 4 µM

Response field MIC (Pseudomonas aeruginosa) for item CC(C)C[C@H](NC(=O)[C@H](CCCCN)NC(=O)[C@H](CCCCN)NC(=O)[C@H](C)NC(=O)[C@H](CC(C)C)NC(=O)[C@H](CCCCN)NC(=O)[C@H](C)NC(=O)[C@H](CC(C)C)NC(=O)[C@H](CCCCN)NC(=O)[C@H](CCCCN)NC(=O)[C@H](C)NC(=O)[C@H](CC(C)C)NC(=O)[C@H](CCCCN)NC(=O)[C@H](C)NC(=O)[C@H](CC(C)C)NC(=O)[C@H](CCCCN)NC(=O)[C@H](CCCCN)NC(=O)[C@H](C)NC(=O)[C@H](CC(C)C)NC(=O)[C@@H](N)CCCCN)C(=O)N[C@@H](C)C(=O)O : 4 µM

Test item CC(C)C[C@H](NC(=O)[C@H](CCCCN)NC(=O)[C@H](C)NC(=O)[C@H](CC(C)C)NC(=O)[C@H](CCCCN)NC(=O)[C@H](CCCCN)NC(=O)[C@H](C)NC(=O)[C@H](CC(C)C)NC(=O)[C@H](CCCCN)NC(=O)[C@H](C)NC(=O)[C@H](CC(C)C)NC(=O)[C@@H](N)CCCCN)C(=O)N[C@@H](C)C(=O)N[C@@H](CCCCN)C(=O)O ; Pseudomonas aeruginosa; reported MIC was 6 µM

Here is another compound to look at.
// assay Pseudomonas aeruginosa, entry CC(C)C[C@H](NC(=O)[C@H](C)NC(=O)[C@H](CCCCN)NC(=O)[C@H](CC(C)C)NC(=O)[C@H](C)NC(=O)[C@H](CCCCN)NC(=O)[C@H](CCCCN)NC(=O)[C@H](CC(C)C)NC(=O)[C@H](C)NC(=O)[C@H](CCCCN)NC(=O)[C@H](CC(C)C)NC(=O)[C@H](C)NC(=O)[C@H](CCCCN)NC(=O)[C@H](CCCCN)NC(=O)[C@H](CC(C)C)NC(=O)[C@H](C)NC(=O)[C@H](CCCCN)NC(=O)[C@H](CC(C)C)NC(=O)[C@H](C)NC(=O)[C@@H](N)CCCCN)C(=O)N[C@@H](CCCCN)C(=O)O , MIC value = 4 µM
